- assay info: in vitro
- measurement parameters: human, plasma, pH 7.4
metric: fraction unbound at 6 h, 5 µM

- molecule: "Brc1ccc2[nH]nc(C3=CCCNC3)c2c1 [Compound 19d]"
  recorded result: 0.12
